B1: EHEE_rd4_0726 (parent)
chain: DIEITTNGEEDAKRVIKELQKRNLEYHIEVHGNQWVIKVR

Variants of: B1
test_summary: folding stability dG (cDNA display proteolysis); higher = more stable
measurement_parameters: PBS, room temperature
Param threshold (2 kcal/mol) applies to folding stability dG; output 1 when value >= threshold, 0 when value < threshold.

variant_name | answer_label
V36C | 0
I16N | 0

Asked: Entry H27Y : is its folding stability dG no less than 2 kcal/mol?
Given back: 1

Asked: Entry K17T : is its folding stability dG no less than 2 kcal/mol?
Given back: 1
